Give optical density for every item shown.
target_entity: T1, biotinylated goat anti-human kappa light chain
T1 construct: Positive control of the ELISA
measurement_notes: ELISA; positive control; note: test concentration or dose not given here
Express it in OD; write the number only.

Exercise: I'd like to know its optical density. The binder in question is 376_B11 (antibody, V domains shown, VH/VL only) VH: EVQLLESGGGLVQPGGSLRLSCAASGFTFSSYSMNWVRQAPGKGLEWVSGINYNGGYTSYADSVKGRFTISRDNSKNTLYLQMNSLRAEDTAVYYCARSANWHDTALDYWGQGTLVTVSS VL: DIQMTQSPSSLSASVGDRVTITCRASQSILSYVNWYQQKPGKAPKLVIYAATSRASGVPSRFSGSGSGTDFTLTISSLQPEDFATYYCQQSYDLPLTFGGGTKVEIK
Key: 3.61

Exercise: I'd like to know its optical density. The binder in question is 374_D12 (antibody, V domains shown, VH/VL only) VH: EVQLLESGGGLVQPGGSLRLSCAASGFTFDSYSMNWVRQAPGKGLEWVSGINYNGGYTGYADSVKGRFTISRDNSKNTLYLQMNSLRAEDTAVYYCARSATWHDTHLDYWGQGTLVTVSS VL: DIQMTQSPSSLSASVGDRVTITCRASQSIVSYVNWYQQKPGKAPKLVIYAATSRASGVPSRFSGSGSGTDFTLTISSLQPEDFATYYCQQSYDLPLTFGGGTKVEIK
Key: 3.09

Exercise: I'd like to know its optical density. The binder in question is 374_C02 (antibody, V domains shown, VH/VL only) VH: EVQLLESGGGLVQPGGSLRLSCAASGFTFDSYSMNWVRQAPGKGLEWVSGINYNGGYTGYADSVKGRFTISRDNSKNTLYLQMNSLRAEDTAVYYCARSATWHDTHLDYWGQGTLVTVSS VL: DIQMTQSPSSLSASVGDRVTITCRASQSILSYLNWYQQKPGKAPKLLIYAATSRHSGVPSRFSGSGSGTDFTLTISSLQPEDFATYYCQQSYDSPLTFGGGTKVEIK
Key: 3.06
